Molecular target: Human A2AAR (Homo sapiens, UniProt P29274)
Sequence (P29274 whole entry): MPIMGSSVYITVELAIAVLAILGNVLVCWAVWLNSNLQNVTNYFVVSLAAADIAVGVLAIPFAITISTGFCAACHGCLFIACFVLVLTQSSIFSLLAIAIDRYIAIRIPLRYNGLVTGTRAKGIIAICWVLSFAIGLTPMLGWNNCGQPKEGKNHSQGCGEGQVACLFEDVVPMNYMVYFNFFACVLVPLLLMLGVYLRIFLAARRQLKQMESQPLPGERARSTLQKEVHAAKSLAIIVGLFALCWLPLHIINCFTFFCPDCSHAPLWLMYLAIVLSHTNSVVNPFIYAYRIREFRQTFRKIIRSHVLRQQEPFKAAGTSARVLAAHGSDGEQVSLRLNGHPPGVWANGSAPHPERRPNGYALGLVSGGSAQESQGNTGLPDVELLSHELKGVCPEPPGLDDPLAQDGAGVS
Assay: Ligand binding affinity at human A2AAR
quantityKind: Ki (µM)
Expressed in µM, but write only the number.

Prompt: GET /values?readout=Ki&item= O=S(=O)(O)c1ccc(Nc2ncnc3c2ncn3[C@@H]2O[C@H](CO)[C@@H](O)[C@H]2O)cc1
Completion: 3.78

* * *

Ki values by entry
Target: UniProt Q60612
Sequence (Q60612 whole entry): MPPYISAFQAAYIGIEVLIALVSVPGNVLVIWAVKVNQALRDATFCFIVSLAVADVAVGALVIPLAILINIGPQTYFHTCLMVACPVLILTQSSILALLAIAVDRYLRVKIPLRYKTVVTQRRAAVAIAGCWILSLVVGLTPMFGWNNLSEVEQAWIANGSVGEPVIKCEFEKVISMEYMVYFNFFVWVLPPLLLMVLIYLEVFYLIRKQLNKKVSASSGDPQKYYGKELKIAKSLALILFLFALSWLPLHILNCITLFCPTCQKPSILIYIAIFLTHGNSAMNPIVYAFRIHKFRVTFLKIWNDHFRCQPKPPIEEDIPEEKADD
Assay: Radioligand binding, recombinant mouse A1AR in HEK-293 membranes
Expressed in nM, but write only the number.

For orientation, consider the following solved cases.
Prompt: GET /values?readout=Ki&item= O=S(=O)(O)c1ccc(Nc2ncnc3c2ncn3[C@@H]2O[C@H](CO)[C@@H](O)[C@H]2O)cc1
Completion: 1.08

Prompt: GET /values?readout=Ki&item= OC[C@H]1O[C@@H](n2cnc3c(NC4CCCCC4)ncnc32)[C@H](O)[C@@H]1O
Completion: 2.15

Next:
Prompt: GET /values?readout=Ki&item= CCNC(=O)[C@H]1O[C@@H](n2cnc3c(N)nc(NCCc4ccc(CCC(=O)O)cc4)nc32)[C@H](O)[C@@H]1O
Completion: 193

* * *

Molecular target: mouse A3AR (Mus musculus, UniProt Q61618)
Experiment: Radioligand binding, recombinant mouse A3AR in HEK-293 membranes
Settings: read-out: Ki, mouse A3AR; current results, ±SEM
quantityKind: pKi
Quick note: pKi values are minus log10 of concentrations in mol/L.

Prompt: GET /values?readout=pKi&item= O[C@@H]1[C@H](O)[C@@H](CCl)O[C@H]1n1cnc2c(NC3CC4CCC3C4)ncnc21 (mixture of isomers)
Completion: 5.62

* * *

Target: mouse A3AR (Mus musculus)
Sequence (Q61618 1-319): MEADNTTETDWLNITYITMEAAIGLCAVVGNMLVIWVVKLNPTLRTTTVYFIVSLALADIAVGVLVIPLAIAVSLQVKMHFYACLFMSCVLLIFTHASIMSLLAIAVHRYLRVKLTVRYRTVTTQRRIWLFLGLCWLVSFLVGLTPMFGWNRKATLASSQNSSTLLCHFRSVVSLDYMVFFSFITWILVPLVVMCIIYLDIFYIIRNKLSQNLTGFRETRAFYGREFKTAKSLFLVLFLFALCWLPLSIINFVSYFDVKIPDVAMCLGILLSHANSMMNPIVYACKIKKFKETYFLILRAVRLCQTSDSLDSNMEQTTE
Assay: Radioligand binding, recombinant mouse A3AR in HEK-293 membranes
pKi values by entry
Quick note: pKi values are minus log10 of concentrations in mol/L.

Prompt: Requested read-out pKi, target or system mouse A3AR (Mus musculus), entry CCNC(=O)[C@H]1O[C@@H](n2cnc3c(N)nc(NCCc4ccc(CCC(=O)O)cc4)nc32)[C@H](O)[C@@H]1O [CGS21680]
Completion: 7.32

Now look at this one.
Prompt: Requested read-out pKi, target or system mouse A3AR (Mus musculus), entry O=S(=O)(O)c1ccc(Nc2ncnc3c2ncn3[C@@H]2O[C@H](CO)[C@@H](O)[C@H]2O)cc1 [SPA, N^6-(p-sulfo-phenyl)adenosine]
Completion: 5.51

* * *

Molecular target: Human A3AR (Homo sapiens, UniProt P0DMS8)
Sequence (P0DMS8 1-318): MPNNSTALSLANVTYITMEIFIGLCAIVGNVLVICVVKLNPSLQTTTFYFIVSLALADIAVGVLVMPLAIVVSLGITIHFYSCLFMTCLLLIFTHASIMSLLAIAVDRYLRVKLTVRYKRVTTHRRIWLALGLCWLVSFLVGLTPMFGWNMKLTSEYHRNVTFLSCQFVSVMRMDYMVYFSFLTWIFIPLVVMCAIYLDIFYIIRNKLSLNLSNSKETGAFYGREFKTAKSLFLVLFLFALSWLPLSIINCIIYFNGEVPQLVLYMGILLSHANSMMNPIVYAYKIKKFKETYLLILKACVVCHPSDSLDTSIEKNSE
Experiment: Ligand binding affinity at human A3AR
quantityKind: Ki (nM)
Expressed in nM, but write only the number.

Prompt: GET /values?readout=Ki&item= O=S(=O)(O)c1ccc(Nc2ncnc3c2ncn3[C@@H]2O[C@H](CO)[C@@H](O)[C@H]2O)cc1 [SPA, N^6-(p-sulfo-phenyl)adenosine]
Completion: 246
